Measured values drawn from patent US20240016781A1 for this set.

System: MIA PaCa-2
experimental_details: 72-hour CellTiter-Glo 2.0 growth inhibition screen (single agent, 9x9 combination dose matrix)
Type: cell-based
applied_conditions: MIA PaCa-2, Pancreas; growth inhibition (GI) curve, single agent, 72 h
measurement_kind: EC50
Reply with the number and its unit after it.

response.value for CN1CC[C@@H](c2c(O)cc(O)c3c(=O)cc(-c4ccc(C(F)(F)F)cc4Cl)oc23)[C@@H]1CO (field: EC50) = 1130 nM

###

experimental_details: PK of voruciclib, daily dosing continuously (Table 4)
Format: in vivo
applied_conditions: human, plasma, oral, 250 mg, Day 1, daily dosing continuously, median
measurement_kind: Tmax

response.value for CN1CC[C@@H](c2c(O)cc(O)c3c(=O)cc(-c4ccc(C(F)(F)F)cc4Cl)oc23)[C@@H]1CO (field: Tmax) = 4 h
